Hello, the source for this data is PubChem BioAssay, in case you need it.

- target_or_system: Torsin-1A-interacting protein 2 (Homo sapiens) (UniProt Q8NFQ8)
- Sequence (Q8NFQ8 whole entry, looked up): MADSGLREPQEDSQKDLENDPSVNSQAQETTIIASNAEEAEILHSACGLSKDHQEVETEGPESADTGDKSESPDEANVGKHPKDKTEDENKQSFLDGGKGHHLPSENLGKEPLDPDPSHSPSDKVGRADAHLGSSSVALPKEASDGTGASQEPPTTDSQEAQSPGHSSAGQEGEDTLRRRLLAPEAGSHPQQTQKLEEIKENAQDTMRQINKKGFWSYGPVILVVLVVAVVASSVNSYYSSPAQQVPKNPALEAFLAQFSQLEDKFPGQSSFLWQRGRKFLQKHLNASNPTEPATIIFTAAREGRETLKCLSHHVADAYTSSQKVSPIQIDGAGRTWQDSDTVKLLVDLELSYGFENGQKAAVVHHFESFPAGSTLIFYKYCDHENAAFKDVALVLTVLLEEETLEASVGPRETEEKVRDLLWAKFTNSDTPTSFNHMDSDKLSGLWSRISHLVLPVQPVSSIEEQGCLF
- protocol_notes: LULL1 binders on small-molecule microarray, primary screen, cell lysate, human LULL1 lysate, 635/667 nm fluorescence (AID 1092);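 also: probe is lysate of COS7 cells overexpressing human LULL1; score merges per-feature 667 nm fluorescence with signal-to-noise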
- condition: hLULL1 lysate binding, 635 nm fluorescence, higher = more signal
Class Yes: composite z-score at least 0.8. Class No: composite z-score below 0.8.

Check out these entries, answers already filled in.
• COCCOC(=O)N1C(=O)[C@@]2(c3cc(C#CCNC(N)=O)ccc31)[C@H](c1ccccc1OCCO)N1[C@H](c3ccccc3)[C@H](c3ccccc3)OC(=O)[C@H]1[C@@H]2C(=O)N1CCCCCCC1 = Yes
• COC(=O)[C@@]1(Cc2ccc(F)cc2)[C@H]2c3cc(C(=O)N4CCCC4)n(CCc4c[nH]c5cc(F)ccc45)c3C[C@H]2CN1C(=O)c1ccccc1 = Yes

query: API: above_or_equal(metric=composite z-score, cutoff=0.8) for item CN(C)CCCCNC(=O)[C@H]1C[C@H]2C(=O)N[C@@H](CCCCN(C)C)C(=O)N2[C@H]1c1ccc(O)cc1
result: No

query: Reported composite z-score reaches at least 0.8 for COc1cccc(C)c1NC(=O)O[C@H]1[C@H](OC(=O)Nc2ccc3c(c2)OCO3)[C@H](OC(=O)Nc2ccc3c(c2)OCO3)[C@@H](OC)O[C@@H]1CO ?
result: Yes

###

- target_or_system: Albumin (Bos taurus) (UniProt P02769)
- Sequence (P02769 whole entry, looked up): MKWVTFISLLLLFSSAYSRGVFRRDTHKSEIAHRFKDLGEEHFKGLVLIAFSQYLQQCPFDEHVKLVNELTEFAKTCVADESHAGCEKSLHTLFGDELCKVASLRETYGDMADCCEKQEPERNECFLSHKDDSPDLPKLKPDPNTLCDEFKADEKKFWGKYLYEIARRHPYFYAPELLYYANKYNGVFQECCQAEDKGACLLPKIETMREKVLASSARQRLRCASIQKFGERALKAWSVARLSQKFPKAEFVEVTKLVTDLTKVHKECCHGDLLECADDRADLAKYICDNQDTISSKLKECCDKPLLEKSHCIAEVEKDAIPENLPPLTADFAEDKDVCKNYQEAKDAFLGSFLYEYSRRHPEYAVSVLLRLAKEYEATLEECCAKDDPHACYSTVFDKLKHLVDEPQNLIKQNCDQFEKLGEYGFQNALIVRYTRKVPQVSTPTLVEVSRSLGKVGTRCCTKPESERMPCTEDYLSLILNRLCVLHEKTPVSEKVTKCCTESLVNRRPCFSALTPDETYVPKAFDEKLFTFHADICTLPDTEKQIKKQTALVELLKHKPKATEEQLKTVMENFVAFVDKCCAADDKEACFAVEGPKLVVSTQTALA
- protocol_notes: bovine serum albumin binders on microarray, profiling panel, artefact control for SMM control protein annotation, biochemical, small-molecule microarray, Alexa647 label, 635/667 nm fluorescence (AID 1118);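 also: score merges 667 nm emission intensity and signal-to-noise per printed compound spot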
- condition: BSA-A647 binding, fluorescence 635 nm, higher = more signal
reported_property: composite z-score
Give bare numbers.

- C=CCNC(=O)[C@@H]1[C@H]2C(=O)O[C@H](c3ccccc3)[C@H](c3ccccc3)N2[C@H](c2ccc(OCCO)cc2)[C@@]12C(=O)N(C(=O)OCCOC)c1ccccc12: 0.258
- CC(C)N1C(=O)[C@@]2(Cc3ccccc31)c1ccccc1C(=O)N(Cc1ccccc1)[C@H]2c1ccc(CO)cc1: -0.103

Record composite z-score for all entries; do not skip any.
1. COCCCNC(=O)[C@@]1(Cc2ccccc2I)c2ccccc2C(=O)N(Cc2ccccc2OC)[C@H]1c1ccc(CO)cc1
2. COC(=O)[C@@]1(Cc2ccccc2)[C@H]2c3cc(C(=O)N(C)C)n(Cc4ccc(Cl)c(C(F)(F)F)c4)c3C[C@H]2CN1C(=O)c1ccccc1
3. Cc1ccc(S[C@]2(C(=O)NCc3ccccc3)CC(=O)N(Cc3ccccc3C(F)(F)F)[C@@H]2c2ccc(CO)cc2I)cc1
4. COc1cccc(C)c1NC(=O)O[C@H]1[C@H](OC(=O)Nc2ccc3c(c2)OCO3)[C@H](OC(=O)Nc2ccc3c(c2)OCO3)[C@@H](OC)O[C@@H]1CO
5. O=C1OC[C@@H](c2ccccc2)n2cc(/C=C/c3ccccc3)cc21
6. CCCCCN1CC=CC23O[C@@H]4/C=C\CCCOC(=O)C4[C@H]2C(=O)N(CCCCCO)[C@@H]3C1=O (stereo partly drawn)

result:
1: -0.685; 2: 0.811; 3: 0.269; 4: 0.428; 5: -0.456; 6: -0.191

###

Can you tell me z-score for the items I'm about to list?
- target_or_system: Homeobox protein Hox-A13 (Mus musculus) (UniProt Q62424)
- Sequence (Q62424 whole entry, looked up): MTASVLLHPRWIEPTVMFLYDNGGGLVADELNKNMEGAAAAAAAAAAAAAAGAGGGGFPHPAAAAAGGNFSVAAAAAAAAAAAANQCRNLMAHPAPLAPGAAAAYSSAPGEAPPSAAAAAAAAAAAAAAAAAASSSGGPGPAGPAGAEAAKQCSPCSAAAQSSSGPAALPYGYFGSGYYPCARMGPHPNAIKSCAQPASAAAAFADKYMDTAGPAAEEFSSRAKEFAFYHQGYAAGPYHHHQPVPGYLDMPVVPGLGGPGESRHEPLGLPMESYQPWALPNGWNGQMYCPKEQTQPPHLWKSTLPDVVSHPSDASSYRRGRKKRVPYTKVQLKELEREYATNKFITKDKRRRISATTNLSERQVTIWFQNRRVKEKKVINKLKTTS
- protocol_notes: inhibitors of HoxA13-DNA binding, primary screen, biochemical, fluorescence polarization, labeled oligonucleotide (AID 1185)
- condition: 15 min, higher = more signal, called active from +8 up or from −8 down
One number for each entry.

Answered cases to consult:
• CCCCCCCCCCC(O)C1C=CC2C(=O)N(C)C(=O)C2N1Nc1ccccc1 (stereo not given) = -2.87
• O=C1O[C@H](c2ccccc2)[C@H](c2ccccc2)N2[C@H]1[C@@H](C(=O)N1CCN(c3ncccn3)CC1)[C@]1(C(=O)Nc3ccc(C#CC4(O)CCCCCC4)cc31)[C@H]2c1ccc(O)cc1 = -1.28
• COc1cc(CO)cc(I)c1O[C@H]1C=C(C(=O)NCCO)C[C@@H](N(CCN2CCOCC2)C(=O)C2CCCO2)[C@@H]1O (stereo not given in full) = -1.59
• CCOC(=O)C[C@H]1[C@H](OC(=O)c2cc3ccccc3oc2=O)[C@@H](NC(=O)c2ccc(-c3ccccc3)cc2)c2cc(OCCCO)ccc2N1C(=O)Cc1ccc(OC)cc1 = -3.12

query: Specify measured z-score for CC1C2C(CCCO)=CC(C3C(=O)N(C(N)=O)C(=O)C23)N1Cc1cccc(OC(F)(F)F)c1 (stereo not given) .
result: -7.99
